Tested on: 501mel
MEASUREMENT_PROTOCOL: Cell viability assay (PrestoBlue), 72h
TEST_CONDITIONS: Homo sapiens
QUANTITY_NAME: pIC50
In plain terms, pIC50 is the concentration in mol/L turned into minus its base-10 logarithm.

Examples with answers:
COMPOUND	pIC50
CCCS(=O)(=O)Nc1ccc(F)c(C(=O)c2c[nH]c3ncc(-c4ccc(Cl)cc4)cc23)c1F [vemurafenib]	5.61
COc1c(C)cc2c(c1O)[C@@H]1[C@@H]3[C@@H]4SC[C@]5(N[C@H](CO)Cc6c5oc5ccccc65)C(=O)OC[C@@H](c5c6c(c(C)c(OC(C)=O)c54)OCO6)N3[C@@H](O)[C@H](C2)N1C [Compound IA]	8.76

Now for a further compound.
Q. Can you look up the measured pIC50 of COc1ccc2[nH]c3c(c2c1)CCN[C@]31CS[C@@H]2c3c(OC(C)=O)c(C)c4c(c3[C@H](COC1=O)N1[C@@H]2[C@H]2c3c(cc(C)c(OC)c3O)C[C@@H]([C@@H]1O)N2C)OCO4 [lurbinectedin] for me?
A. 9.43

====

System: IGR37
MEASUREMENT_PROTOCOL: Cell viability assay (PrestoBlue), 72h, last line of Table 2
TEST_CONDITIONS: Homo sapiens, IGR-37, 72 h
Reported pIC50 values are given for each entry in this list.
In plain terms, pIC50 is the concentration in mol/L turned into minus its base-10 logarithm.

Examples with answers:
COMPOUND	ASSAY_TARGET	pIC50
COc1ccc2[nH]c3c(c2c1)CCN[C@]31CS[C@@H]2c3c(OC(C)=O)c(C)c4c(c3[C@H](COC1=O)N1[C@@H]2[C@H]2c3c(cc(C)c(OC)c3O)C[C@@H]([C@@H]1O)N2C)OCO4 [lurbinectedin]	IGR37	9.39
COc1c(C)cc2c(c1O)[C@@H]1[C@@H]3[C@@H]4SC[C@]5(N[C@H](CO)Cc6c5[nH]c5ccccc65)C(=O)OC[C@@H](c5c6c(c(C)c(OC(C)=O)c54)OCO6)N3[C@@H](O)[C@H](C2)N1C [PM14, ecubectedin]	IGR37	9.11

Q. Can you look up the measured pIC50 of COc1c(C)cc2c(c1O)[C@@H]1[C@@H]3[C@@H]4SC[C@]5(N[C@H](CO)Cc6c5oc5ccccc65)C(=O)OC[C@@H](c5c6c(c(C)c(OC(C)=O)c54)OCO6)N3[C@@H](O)[C@H](C2)N1C [Compound IA] for me?
A. 9.08

====

Tested on: 501mel
MEASUREMENT_PROTOCOL: Cell viability assay (PrestoBlue), 72h
TEST_CONDITIONS: Homo sapiens
QUANTITY_NAME: pIC50
In plain terms, pIC50 is the concentration in mol/L turned into minus its base-10 logarithm.

STRUCTURE_NOTATION	RECORDED_NUMBER
CC(=O)Nc1cccc(-n2c(=O)n(C3CC3)c(=O)c3c(Nc4ccc(I)cc4F)n(C)c(=O)c(C)c32)c1	8.52

Q. Can you look up the measured pIC50 of `COc1c(C)cc2c(c1O)[C@@H]1[C@@H]3[C@@H]4SC[C@]5(N[C@H](CO)Cc6c5[nH]c5ccccc65)C(=O)OC[C@@H](c5c6c(c(C)c(OC(C)=O)c54)OCO6)N3[C@@H](O)[C@H](C2)N1C` for me?
A. 8.90
